// reported protein stability index per item
test: protein stability index of a GFP-peptide fusion (yeast GPS) (PSI 1-4); higher = more stable; sorted into four equal gates, so the index is relative within each strain; conditions: doa10∆
assay.metric: protein stability index

sequence.record | value.measured
RSINNLIQEHDSRKNRE [BRN1] | 3.24
KQHAVLMLGSVNLPGGI [RRP4] | 2
SVFKGGMQNLIKKKKKK [SRP14] | 2
RLERRINLTKVTQKDIC [CSI1] | 2.88

====

test: protein stability index of a GFP-peptide fusion (yeast GPS) (PSI 1-4); higher = more stable; sorted into four equal gates, so the index is relative within each strain; details: doa10∆
# if value of protein stability index reaches 3, tag true (1); if it stays below, tag false (0)

sequence.record | category
GRDAFHLRVRVHPFHVL [RPL10] | false (0)
TGYPDEPPAGVALPPGS [CYT1] | false (0)
ITHTENYNDLIVNYEDL [BRN1] | true (1)
TENATENDQQDNEEWMN [LIN1] | true (1)
FASNKKINDESSIDKKS [YML103C/NUP188] | false (0)
DLLPNSFAKLVPCEGKD [SMC2] | false (0)
AARHRARFRSIHILKVA [RPL20A] | false (0)
SGEPIIAATQDFITGSY [RPO31] | true (1)
PPKHTELLLTTLSVSHG [SSN2] | false (0)
NNIIAEGIEKMGVRTFS [FAS2] | false (0)
KSMLSKPETLSIGKNPF [SWI3] | false (0)
PQGSTTNGGLFGSGTQN [YGR119C/NUP57] | true (1)
LPVKEFQIIDTLLPGLQ [RPS2] | false (0)
YDYYALQLLPLQKAVRG [SNF2] | false (0)
KYQKALHYLKKFKHIDD [SRP72] | false (0)
NDIDDLDMELAELDPSL [SEC65] | true (1)
DVKSSLSKVFSDVLFEF [YJL039C/NUP192] | false (0)
SIYKYIHLNELLTNDES [SNF12] | false (0)
ELESMLEDLKNTKEIAV [RRP6] | false (0)
VSLTQLRCVKYLQETAI [RPC82] | false (0)
IKKKRKELFEKTFDYVS [SMC1] | true (1)
FLKKLRNEQVTIELKNG [SMD1] | false (0)
AQKYASIVGVDLSSAAS [FAS2] | false (0)
SLQQMQHLQQLKMQQQQ [GAL11] | false (0)
FAQGKRRYDRKQSGFGG [RPL42A] | true (1)
IEEIEYNVKNIIQGRKN [PCI8] | false (0)
HNAGPVAGAGAASGAAA [RPP1B] | true (1)
FKVQELLHSKPSLLLQK [NAS6] | false (0)
SSKTRNVLNRIQELEDQ [ITC1] | false (0)
NDVTNKNINIGKHSQEQ [SIR4] | false (0)
IAHNISAKNRVVILARA [RPL32] | false (0)
QTYGETTAVDALQKGLK [RPC19] | false (0)
DSDMLTKSHNTVQSWLC [NUT1] | false (0)
SVEEVILERAYKKLDID [SNF2] | true (1)
NVIITGSTSLIEGMEQR [ARP7] | false (0)
FSQEALQYVVERVGKRT [FAS1] | false (0)
DQFRDVEITFGKEFGDV [RRP45] | true (1)
KRPRSRTLTAVHDKVLE [RPS7B] | true (1)
IHQYLFQEGVVVAKKDF [RPS10A] | false (0)
ISTSFCFICLLHLANEH [BRN1] | false (0)
HKLDLAKRNLDANPSSQ [SMC2] | false (0)
KVGAEMMMQQQLKNVQL [MED2] | false (0)
EGIIKPISKHSKQAIYT [RPS25A] | false (0)
IYHGNHDVGELFWKVKE [PRE2] | false (0)
HFNGIRRLDALVEKVYA [ITC1] | true (1)

====

experiment: protein stability index of a GFP-peptide fusion (yeast GPS) (PSI 1-4); higher = more stable; sorted into four equal gates, so the index is relative within each strain; conditions: doa10∆

sequence.record | protein stability index
LPEQLKSGKFCSHCGCV [SNM1] | 2.79
YTREFVEAIRRSNQYQR [NUT2] | 2.26
YPNEVLKFNHGNYSHLM [REC8] | 2.7
TRFEVELEFIQSLANIQ [SOH1] | 2.15

====

experiment: protein stability index of a GFP-peptide fusion (yeast GPS) (PSI 1-4); higher = more stable; sorted into four equal gates, so the index is relative within each strain; conditions: doa10∆
// reported protein stability index per item

sequence.record | protein stability index
ETIKMKELDQELIIDPL [BRN1] | 2.98
VPNYEVSEKAFLLTQSK [RPN7] | 3.17
TSVENEGPVANLKDYEL [REC8] | 3.38
TTILSFSSPAALMKTLI [NUT1] | 1.65
VTSADSNLKISLVKYPE [SWI1] | 2.61
YSSYIYKVLKQTHPDTG [HTB1] | 2.58
KIADLVRIPPDQFHRDT [RPC25] | 2.18
VDIDDPDMMVDSFTMPN [SNF2] | 3.27
YRRALQSSESFDDSDIT [YML103C/NUP188] | 1.89
EELVSLAVFLFDIYNRD [YJL039C/NUP192] | 2.03
ISALTQTEIKDIILGQN [PRP8] | 2.1
GEAEAEKEEEEAKEESD [RPP1A] | 2.13
RSKNLIFNGETLEDALR [GRR1] | 2.92
DSEDEDSMKDTTDMISV [YML031W/NDC1] | 3.17
RLLSALGPRGVSITPGK [SRP21] | 2.97
GSLNATNFSPTPANNGE [SNF2] | 2.93
CSDFVKILNLEKPLILA [NUT1] | 2.01
SLTEKFSQTVADNNDLQ [ECM29] | 2.48
DIGSDPTLPRSDRECPK [RPB9] | 2.7

====

experiment: protein stability index of a GFP-peptide fusion (yeast GPS) (PSI 1-4); higher = more stable; sorted into four equal gates, so the index is relative within each strain; conditions: pdr5∆
assay.metric: protein stability index

sequence.record | value.measured
GVTIEFSTNVKDEIVLS [RPL9A] | 3.33
MVGQQYSSAPLRTVKEV [RPO21] | 1.92
AISTGNWSLKRFKMERA [RET1] | 1.93
EQFYTKDIIDPKLTSIF [RPN2] | 2.92
RFQKCFPPGVIGIDEGS [RPC40] | 2.15
NQNTLKEISARRYKLLT [POP1] | 2.35
EDQKVVDKALIAEIKKT [RPL6A] | 3.48
RLTKQAFDWVLSNIEAQ [RPO21] | 2.93
EILRIHSRKMNLTRGIN [RPT6] | 2.99
KTVQSMTQRAIQSAESI [SWI3] | 1.8
NDELVELLANKCPLLVE [GRR1] | 2.13
VYINPSGEKIDFLLSDW [BRR2] | 2.49
NLQAKPLVGKPKTELTK [YAR002W/NUP60] | 2.52
DEDLLDTQTFSVLLQQL [YGL172W/NUP49] | 2.81
LPVNIRRIIQNAQQTFH [RPO21] | 2.01
VPFESLQGVTYPVLRKL [YIL149C/MLP2] | 2.56
NEEINKKSLEEDDEFED [SEM1] | 3.33
IVVAMTGKDCVAIACDL [PUP3] | 1.47
AGASPMVNTQQPIVTGT [PRE4] | 2.67
TKGDSTPVQPDLSVTPQ [YAR002W/NUP60] | 3.16
MVAYSPIIATYGNRAEQ [SRP68] | 2.54
NAISNTQDDFTTSVDVM [SRP54] | 2.76
HKLDLAKRNLDANPSSQ [SMC2] | 2.24
NLKVELKEQSEQLKEQM [SMC4] | 3.2
NLDGTKAVKLRKSYKNQ [ROX3] | 3.36

====

assay: protein stability index of a GFP-peptide fusion (yeast GPS) (PSI 1-4); higher = more stable; sorted into four equal gates, so the index is relative within each strain; conditions: pdr5∆
// reported protein stability index per item
assay.metric: protein stability index

sequence.record | value.measured
KHGTYDKLDDDGLIAPG [RPB2] | 2.92
FIVVPDLLKNAPLFKKN [SMD3] | 1.57
IAPRRKRLADGLSVTQK [DIS3] | 3.3
RVNLSENTPEPDLPALE [SMC4] | 2.32
VCKKADVDLHKRAGELT [RPS18A] | 3.31
KYIVKASSGPRYIVGVR [RPT4] | 2.66
IGTINSIVHINSQERVQ [SIR2] | 2.16

====

assay: protein stability index of a GFP-peptide fusion (yeast GPS) (PSI 1-4); higher = more stable; sorted into four equal gates, so the index is relative within each strain; details: doa10∆
# if value of protein stability index reaches 2, tag met; if it stays below, tag not met

sequence.record | category
KVFVPPKSKSLPNEMSQ [RPO31] | met
TGANFDDVERGVSRQIA [REC8] | met
KNPHDIIEGINAGEIEI [RPL12A] | met
EYRDLYTNSVELRSLSK [YMR129W/POM152] | met
DSVFEQNEMIDAIAVTK [RPL3] | met
ADLERFFLSIYFFYASR [YJL039C/NUP192] | not met
LMYATDWQMMTSPVTGA [CSL4] | met
LYDALEPSDLRSWTLTS [YGL100W/SEH1] | met
QLVYKRGFGKINKQRVP [RPL7A] | met
KEGASTNWDDHAIIIFG [YMR153W/NUP53] | met
GPSATDPETTATQKESL [RGR1] | met
TEELSITGEKLDTQLND [SMC1] | not met
QRTATLCLEKLMCLSSK [YCS4] | not met
DTYKRFKYLLGVTDLFR [ISW2] | not met
DILLNERVWNICLYSSF [AAR2] | not met
GNLSKREIQIDAVLKIF [SRB8] | met
AINLMGVKNNLLTPKSG [RPO31] | met
KKVASANATAAESDVAK [RPL16A] | met
GATKIVREHYLRSDIPC [DIS3] | met
RAHGRINKYESSPSHIE [RPL17A] | met
KYMVKGGLSGEESIKIY [UBP6] | met
ILEVGALASIQTFNFDS [RPN12] | met
TIRQIILPDSLNLDSLL [SMD1] | met
LALMTAHSLSPKDYIKK [CDC53] | met
